- TARGET_OR_TEST_SYSTEM: Syp(N) SH2-GST binding to PDGF receptor kinase domain (Homo sapiens, UniProt Q06124)
- Construct: S-X-SH2-GST (X=Src, Ab1, Grb2, p85-N, p85-C, Syp-N, and PLCy-C domains)
- Sequence (Q06124 6-102): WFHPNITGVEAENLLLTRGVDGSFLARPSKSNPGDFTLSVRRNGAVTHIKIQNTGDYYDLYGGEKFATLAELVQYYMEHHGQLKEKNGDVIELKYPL
- METHOD_SUMMARY: Inhibition of activated PDGF receptor binding to 35S-SH2 domains: Syp(N) SH2-GST
- TEST_PARAMETERS: 35S-Syp(N) SH2-GST, immobilized PDGF receptor kinase domain, pH 7.5, room temperature, 30 minutes
MEASURE_NAME: IC50

>>> df
                                   molecule  measure_name  value_observed
0  CC(=O)N[C@@H](Cc1ccc(OP(=O)(O)O)cc1)C(=O)NC(C)c1ccc(OCC2CCCCC2)c(C(N)=O)c1 (mixture of isomers)          IC50         ~100 µM
1  CC(=O)N[C@@H](Cc1ccc(C(F)(F)P(=O)(O)O)cc1)C(=O)N[C@@H](CCC(=O)O)C(=O)N(C)CCCC1CCCCC1          IC50        > 100 µM
2  CC(=O)N[C@@H](Cc1ccc(OP(=O)(O)O)cc1)C(=O)N[C@@H](CCC(=O)O)C(=O)N(C)CCCC1CCCCC1          IC50        > 100 µM

###

- TARGET_OR_TEST_SYSTEM: Abl SH2-GST binding to PDGF receptor kinase domain (Homo sapiens)
- Construct: S-X-SH2-GST (X=Src, Ab1, Grb2, p85-N, p85-C, Syp-N, and PLCy-C domains)
- Sequence (P00519 127-217 limits assumed): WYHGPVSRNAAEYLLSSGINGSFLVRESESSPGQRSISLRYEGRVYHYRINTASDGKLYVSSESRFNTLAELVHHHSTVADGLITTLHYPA
- METHOD_SUMMARY: Inhibition of activated PDGF receptor binding to 35S-SH2 domains: Abl SH2-GST
pIC50: −log10 of the molar value.
MEASURE_NAME: pIC50

In [3]: df
Out[3]:
                                   compound  value_observed
0  CC(=O)N[C@@H](Cc1ccc(OP(=O)(O)O)cc1)C(=O)NC(C)c1ccc(OCC2CCCCC2)c(C(N)=O)c1 (mixture of isomers)            4.92

###

- TARGET_OR_TEST_SYSTEM: Src SH2 (Homo sapiens, UniProt P12931)
- Construct: glutathione-S-transferase(GST)-Src SH2 fusion protein
- Sequence (P12931 151-248 limits assumed): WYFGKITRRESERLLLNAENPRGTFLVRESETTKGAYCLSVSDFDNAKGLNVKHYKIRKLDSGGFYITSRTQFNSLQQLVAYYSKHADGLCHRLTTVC
- METHOD_SUMMARY: Inhibition of 125I-phosphopeptide binding to immobilized Src SH2
- TEST_PARAMETERS: IC50, SRC SH2 Binding, competitive 125I-phosphopeptide displacement, GST-Src SH2 fusion protein, pH 7.5, room temperature, 20 minutes
pIC50: −log10 of the molar value.
MEASURE_NAME: pIC50

>>> print(df.to_string())
                                    compound  value_observed
 0  CC(=O)N[C@@H](Cc1ccc(OP(=O)(O)O)cc1)C(=O)N[C@@H](CCC(=O)O)C(=O)NCCc1ccc(C)cc1            5.08
 1  COc1ccccc1CCN(C)C(=O)[C@H](CCC(=O)O)NC(=O)[C@H](Cc1ccc(OP(=O)(O)O)cc1)NC(C)=O            5.21
 2  CCCC(NC(=O)[C@H](Cc1ccc(OP(=O)(O)O)cc1)NC(C)=O)c1ccc(OCC2CCCCC2)c(C(N)=O)c1 (mixture of isomers)            5.68
 3  CC(=O)N[C@@H](Cc1ccc(OP(=O)(O)O)cc1)C(=O)N[C@@H](CCC(=O)O)C(=O)NCCCCC(C)C (relative stereo)            5.17
 4  CC(=O)N[C@@H](Cc1ccc(OP(=O)(O)O)cc1)C(=O)NCc1ccc(OCC2CCCCC2)c(C(=O)NN)c1            4.74
 5  CC(=O)N[C@@H](Cc1ccc(OP(=O)(O)O)cc1)C(=O)N[C@@H](CCC(=O)O)C(=O)N[C@@H](C)CC1CCCCC1            5.62
 6  CC(=O)N[C@@H](Cc1ccc(OP(=O)(O)O)cc1)C(=O)NCc1ccc(OC(C)CC2CCCCC2)c(C(N)=O)c1 (mixture of isomers)            5.42
 7  CC(=O)N[C@@H](Cc1ccc(OP(=O)(O)O)cc1)C(=O)N[C@@H](C)C(=O)N(CCCC(=O)O)CCCC1CCCCC1            5.15
 8  CC(=O)N[C@@H](Cc1ccc(OP(=O)(O)O)cc1)C(=O)NCc1ccc(OCC2CCCCC2)c(C(=O)NO)c1            4.62
 9  CC(=O)N[C@@H](Cc1ccc(OP(=O)(O)O)cc1)C(=O)NC(C)c1ccc(OCC2CCCCC2)c(CC(N)=O)c1 (mixture of isomers)            5.04
10  CNC(=O)N[C@@H](Cc1ccc(OP(=O)(O)O)cc1)C(=O)N[C@@H](CCC(=O)O)C(=O)N(C)CCCC1CCCCC1            5.70
11  CC(=O)N[C@@H](Cc1ccc(OP(=O)(O)O)cc1)C(=O)N[C@@H](CCC(=O)O)C(=O)NCCCc1ccc(OCC(=O)O)cc1            5.08
12  CN(CCCC1CCCCC1)C(=O)[C@H](CCC(=O)O)NC(=O)c1ccc(OP(=O)(O)O)cc1            5.08

###

- TARGET_OR_TEST_SYSTEM: Abl SH2 (Homo sapiens, UniProt P00519)
- Construct: glutathione-S-transferase(GST)-Abl SH2 fusion protein
- METHOD_SUMMARY: Inhibition of 125I-phosphopeptide binding to immobilized Abl SH2
- TEST_PARAMETERS: IC50, Abl SH2 Binding, competitive 125I-phosphopeptide displacement, GST-Abl SH2 fusion protein, pH 7.5, room temperature, 20 minutes
MEASURE_NAME: IC50

In [3]: df
Out[3]:
                                   compound  value_observed
0  CN(CCCC1CCCCC1)C(=O)[C@H](CCC(=O)O)NC(=O)[C@H](Cc1ccc(OP(=O)(O)O)cc1)NS(=O)(=O)N(C)C [Example 60]          9.7 µM
1  CN(CCCC1CCCCC1)C(=O)[C@H](CCC(=O)O)NC(=O)NCc1ccc(OP(=O)(O)O)cc1 [Example 61]         ~100 µM
2  CC(NC(=O)Nc1cccc2cc(OP(=O)(O)O)ccc12)c1ccc(OCC2CCCCC2)c(C(N)=O)c1 (racemic) [Example 75]          ~60 µM
3  CC(=O)N[C@@H](Cc1ccc(OP(=O)(O)O)cc1)C(=O)N[C@H](C(=O)NCCCc1ccccc1)C(C)O (stereo partly shown) [Example 58]          ~60 µM

###

- TARGET_OR_TEST_SYSTEM: Src SH2 (Homo sapiens, UniProt P12931)
- Construct: glutathione-S-transferase(GST)-Src SH2 fusion protein
- METHOD_SUMMARY: Inhibition of 125I-phosphopeptide binding to immobilized Src SH2
- TEST_PARAMETERS: IC50, SRC SH2 Binding, competitive 125I-phosphopeptide displacement, GST-Src SH2 fusion protein, pH 7.5, room temperature, 20 minutes
pIC50: −log10 of the molar value.
MEASURE_NAME: pIC50

In [3]: df
Out[3]:
                                   compound  measure_name  value_observed
0  CNC(=O)c1cc(CNC(=O)c2ccc(OP(=O)(O)O)cc2)ccc1OCC1CCCCC1 [Example 48]         pIC50           ~4.52
1  NC(=O)c1cc(CNC(=O)c2ccc(OP(=O)(O)O)c(Cl)c2)ccc1OCC1CCCCC1 [Example 47]         pIC50           ~4.70
2  CC(C)CCCOc1ccc(CNC(=O)c2ccc(OP(=O)(O)O)cc2)cc1C(N)=O [Example 42]         pIC50           ~4.52
